# Test system: BT-549 breast
# procedure_details: NCI-60 one-dose screen, 48 h (100 = growth as untreated, 0 = no growth, -100 = all killed)
# test_parameters: 10 µM unless noted
About 83,000 compounds went through this panel and 20% of them were active in at least one assay; those are over-represented in the sample as a whole.
Below: a set of entries, each annotated with reported growth.
quantity_kind: growth (%)

• Cc1cc(C(C)(C)C)ccc1S = 105
• C/C(=N/NC(=S)Nc1ccccc1)c1nc2ccc(Cl)cc2[nH]1 = -94.9
• Clc1ccc2c(NC3CCC(NC4CCCCC4)CC3)ccnc2c1 (stereo not drawn) = 86.8
• Cc1ccc(NS(=O)(=O)c2cc(C)ccc2C)cc1 = 39.1
• S=c1[nH]nc(-c2cc3ccc2CCc2ccc(cc2)CC3)n1-c1ccccc1 = 108
• O=C1/C(=C/c2ccccc2)Oc2ccc(O)c(I)c21 = 84.3
• O=C(C1=Cc2cc3ccccc3n2Cc2cnnn21)c1ccccc1 = 37.5
• NC(=O)c1c(NC(=S)Nc2ccc(OC(F)(F)F)cc2)sc2c1CCC1(C2)OCCO1 = 93.8
• COc1cc([N+](=O)[O-])c2ncccc2c1O = 86.9
• Cc1ccc2[nH]c(=O)c3c(c2c1)Oc1ncn2nc(-c4ccco4)nc2c1C3c1ccc(Cl)cc1 (stereo not drawn) = 91.4
• CC(=O)Nc1scc[n+]1Cc1ccccc1 = 103
• Cc1ccc(-c2nc(C#N)c(S(=O)(=O)n3nc(-c4ccccc4)cc3N)o2)cc1 = 96.8
• COc1ccc(OC)c(C2OC(c3ccc4ccccc4c3O)=NN2C(C)=O)c1 (stereo not drawn) = 84.4
• C=C1CCC2C3(C)COC(c4ccccc4)OC3CCC2(C)C1/C=C/C1=CCOC1=O (stereo not drawn) = -18.3
• CCCCOc1ccc(/C=C2/SC(N3CCOCC3)=NC2=O)cc1OCC = 83
• COc1ccc(C(=O)N2NC(=O)/C(=C/c3ccc(Br)cc3)N=C2c2ccccc2)cc1 = 85.5
• CC(C)(C)n1cc(-c2ccnc(NCCCNS(=O)(=O)c3cccc(F)c3)c2)c(-c2cccc(O)c2)n1 = 67.4
• COc1cccc(/C=C2\Oc3cc(OCCCN4CCCC4)ccc3C2=O)c1 = 92.6

----------
# System: NCI/ADR-RES ovarian
# procedure_details: NCI-60 one-dose screen, 48 h (100 = growth as untreated, 0 = no growth, -100 = all killed)
# test_parameters: 10 µM unless noted
About 83,000 compounds went through this panel and 20% of them were active in at least one assay; those are over-represented in the sample as a whole.
Below: a set of entries, each annotated with reported growth.
quantity_kind: growth (%)

* Cc1cc(C(C)(C)C)ccc1S | 112
* C=C1c2nc3ccccc3n2C=C(c2ccc(Cl)cc2)N1Cc1ccccc1 | 79.4
* CCN1C(=O)N(CC)C2C1NN=c1s/c(=C\c3cccnc3)c(=O)n12 (stereo not given) | 16.2
* COc1cc(Nc2nc(N[C@H]3CCCC[C@@H]3N)nc3cc[nH]c(=O)c23)cc(OC)c1 | 100
* N[C@@H]1CCN(C(=O)c2cc3cc(Cl)c(F)c(F)c3[nH]2)C1 | 103
* CC(C)(C)n1cc(-c2ccnc(NCCCNS(=O)(=O)c3ccc(C(F)(F)F)cc3)c2)c(-c2cccc(O)c2)n1 | 34.6
* O=C1CS/C(=N\Nc2cc(=O)[nH]c3ccccc23)N1c1ccccc1 | 91.3
* CC12CCC3C4(C)COC(c5ccccc5Cl)OC4CCC3(C)C1CC(C1=CCOC1=O)O2 (stereo not given) | 63.2
* CC1(c2ccc(Cl)cc2)OC(=O)CC(=O)O1 | 106
* CC1(C)C(=O)/C(=C\c2ccc(C(F)(F)F)cc2)C[C@]2(C)[C@H]3CC[C@@H]4[C@H]5[C@H](C(=O)/C=C/c6ccc(C(F)(F)F)cc6)CC[C@]5(CO)CC[C@@]4(C)[C@]3(C)CC[C@@H]12 | 99.1
* C/C(=N/NC(=S)Nc1ccccc1)c1nc2ccc(Cl)cc2[nH]1 | -12.7
* Oc1ccccc1/C=N/NC(=S)NC1CC2C=CC1C2 (stereo not given) | 0.723
* COc1ccncc1S(=O)(=O)NC(=O)Nc1ccc(Cl)c(Cl)c1 | 89.8
* CN(CCCCCl)P(=O)(OCc1ccc([N+](=O)[O-])o1)C(F)(F)C[C@H](NC(=O)CNC(=O)c1ccc(N=[N+]=[N-])cc1)C(=O)NCCc1ccc(O)cc1 (stereo not given in full) | 103
* O=C(Nc1ccc2c(c1)OCO2)C(=O)c1c[nH]c2cc(F)ccc12 | 47.6

These entries and their values trace back to PubChem BioAssay (NCI).
